molecular target: SHLD3;SHLD2 1-95;REV7 R124A (human;human;human, UniProt Q6ZNX1;Q86V20-2;Q9UI95 1-250;1-95;1-211, ||R124A); test: fluorescence anisotropy; 20 mM Na-HEPES pH 7.5, 5% glycerol, 100 mM NaCl, 0.5 mM TCEP; 10 nM DNA, 30 min, room temperature; details: protein: recombinant;recombinant;recombinant; tags: tags cleaved (PreScission);GST tag, cleaved (PreScission);tags cleaved (PreScission); copies: 1;1;2; label: 5(6)-FAM on strand 1; blunt
Sequence (Q6ZNX1 whole entry, chain 1 of 3): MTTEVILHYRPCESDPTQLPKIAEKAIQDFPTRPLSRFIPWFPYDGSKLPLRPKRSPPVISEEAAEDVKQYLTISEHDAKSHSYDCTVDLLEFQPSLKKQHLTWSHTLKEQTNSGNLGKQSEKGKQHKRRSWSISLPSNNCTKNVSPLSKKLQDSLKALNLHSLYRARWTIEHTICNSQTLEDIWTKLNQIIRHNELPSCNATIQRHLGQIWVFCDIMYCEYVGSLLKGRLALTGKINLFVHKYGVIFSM
Sequence (Q86V20 1-95, chain 2 of 3): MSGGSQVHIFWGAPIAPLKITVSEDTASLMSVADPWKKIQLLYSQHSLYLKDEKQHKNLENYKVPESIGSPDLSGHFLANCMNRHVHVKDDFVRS
Sequence (Q9UI95 whole entry R124A, chain 3 of 3): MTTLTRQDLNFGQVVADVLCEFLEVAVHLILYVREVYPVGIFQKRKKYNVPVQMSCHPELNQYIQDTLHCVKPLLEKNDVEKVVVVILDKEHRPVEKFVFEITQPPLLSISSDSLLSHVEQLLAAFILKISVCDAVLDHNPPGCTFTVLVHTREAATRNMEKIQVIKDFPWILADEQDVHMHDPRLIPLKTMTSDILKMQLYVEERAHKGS
reported.metric: pKd
Give bare numbers, as −log10 of the molar value.

>>> data_value("dsTelo (dsDNA) DNA 1: TTAGGGTTAGGG DNA 2: CCCTAACCCTAA")
6.74

**Q:** Indicate the recorded pKd value for this binder: non-telomeric dsDNA (dsDNA) DNA 1: AGTGCCAGTGCC DNA 2: GGCACTGGCACT
**A:** 6.78

All values here come from paper PMC10082759.
